Kindly supply the reported IFNgamma release in MLR, % of rec hu IL-2 control, 10 µg/ml values for the records listed here.
target: human TIM3, full length, on cells (human, UniProt Q8TDQ0 22-301); assay: cell-based or functional assay
Give bare numbers, in %.

Some solved cases for reference:
[[record]]
binder = "anti-TIM3 antibody Tim3_0038 (antibody, V domains shown, Mouse monoclonal from hybridoma) VH: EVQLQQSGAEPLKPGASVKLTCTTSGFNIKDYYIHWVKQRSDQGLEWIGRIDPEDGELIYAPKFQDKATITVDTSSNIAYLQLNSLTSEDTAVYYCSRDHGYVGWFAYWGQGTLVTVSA VL: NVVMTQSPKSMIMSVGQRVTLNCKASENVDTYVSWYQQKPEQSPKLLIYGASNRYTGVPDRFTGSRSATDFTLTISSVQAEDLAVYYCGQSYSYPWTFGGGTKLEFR"
result_value = 38

[[record]]
binder = "anti-TIM3 antibody Tim3_0016 variant (Tim3_0018) (antibody, V domains shown, Mouse monoclonal from hybridoma; also called TIM3-0016 variant (0018); Tim3_0016 variant 0018-A488) VH: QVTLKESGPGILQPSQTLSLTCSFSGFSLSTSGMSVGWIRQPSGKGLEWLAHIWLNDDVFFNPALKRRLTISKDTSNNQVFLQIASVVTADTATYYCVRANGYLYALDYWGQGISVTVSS VL: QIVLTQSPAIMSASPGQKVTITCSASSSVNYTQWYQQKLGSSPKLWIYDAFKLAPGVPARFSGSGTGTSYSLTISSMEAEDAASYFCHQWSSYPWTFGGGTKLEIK"
result_value = 30

[[record]]
binder = "anti-TIM3 antibody Tim3_0021 (antibody, V domains shown, Mouse monoclonal from hybridoma) VH: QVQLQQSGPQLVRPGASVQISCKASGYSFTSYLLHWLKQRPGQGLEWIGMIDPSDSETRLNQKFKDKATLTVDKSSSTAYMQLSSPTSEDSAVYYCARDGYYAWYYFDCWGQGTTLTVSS VL: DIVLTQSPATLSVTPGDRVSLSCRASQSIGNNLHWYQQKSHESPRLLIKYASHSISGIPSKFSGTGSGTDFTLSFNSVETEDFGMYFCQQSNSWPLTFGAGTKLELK"
result_value = 108


Let us examine a further case.
q: Given the entry anti-TIM3 antibody Tim3_0033 (antibody, V domains shown, Mouse monoclonal from hybridoma) VH: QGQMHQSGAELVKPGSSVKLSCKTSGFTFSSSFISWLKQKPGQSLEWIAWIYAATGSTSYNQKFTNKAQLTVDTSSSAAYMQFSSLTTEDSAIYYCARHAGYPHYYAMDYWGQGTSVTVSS VL: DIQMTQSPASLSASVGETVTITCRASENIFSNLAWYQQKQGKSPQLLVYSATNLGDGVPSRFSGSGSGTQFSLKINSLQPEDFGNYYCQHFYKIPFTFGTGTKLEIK , report its measured IFNgamma release in MLR, % of rec hu IL-2 control, 10 µg/ml.
a: 30
